- Target desc: BTK (Homo sapiens)
- Sequence (Q06187 whole entry): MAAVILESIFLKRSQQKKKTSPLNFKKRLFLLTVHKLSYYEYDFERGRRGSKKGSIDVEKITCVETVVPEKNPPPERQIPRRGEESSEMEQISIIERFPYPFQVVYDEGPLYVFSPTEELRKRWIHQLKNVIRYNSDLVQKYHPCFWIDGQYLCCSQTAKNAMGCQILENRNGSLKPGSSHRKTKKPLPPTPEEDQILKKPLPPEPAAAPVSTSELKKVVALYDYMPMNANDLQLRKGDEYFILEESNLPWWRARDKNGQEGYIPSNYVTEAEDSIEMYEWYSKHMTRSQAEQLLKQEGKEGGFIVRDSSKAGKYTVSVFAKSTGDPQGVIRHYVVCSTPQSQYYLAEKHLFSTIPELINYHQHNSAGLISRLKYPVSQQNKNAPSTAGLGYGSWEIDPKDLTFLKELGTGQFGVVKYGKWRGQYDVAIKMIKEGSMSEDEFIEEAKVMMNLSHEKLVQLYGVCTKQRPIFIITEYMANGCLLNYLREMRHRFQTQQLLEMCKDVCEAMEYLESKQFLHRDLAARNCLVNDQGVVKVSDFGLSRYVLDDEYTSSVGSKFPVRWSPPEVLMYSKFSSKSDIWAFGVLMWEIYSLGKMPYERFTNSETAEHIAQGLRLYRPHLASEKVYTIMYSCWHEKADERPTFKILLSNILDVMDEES
- Protocol text: Degradation of BTK protein in Namalwa cells (Western blot; DC50, Dmax)
- Assay setup: BTK degradation; cell line not given
Kindly state DC50 for each of the entries shown.

DC50 for Nc1ncnc2c1c(-c1ccc(Oc3ccccc3)cc1)nn2C1CCN(CC2CCN(CCCN3CCC(c4ccc5c(c4)C(=O)N(C4CCC(=O)NC4=O)C5=O)CC3)CC2)CC1 (stereo not drawn) [Compound 209] ? 10 to 50 nM

Try the molecule Nc1ncnc2c1c(-c1ccc(Oc3ccccc3)cc1)nn2C1CCN(C2CCN(C(=O)N3CCC(CCCC4CCN(c5ccc6c(c5)CN(C5CCC(=O)NC5=O)C6=O)CC4)CC3)CC2)CC1 (stereo not drawn) [Compound 266] 10 to 50 nM

Try the molecule NC(=O)c1c(-c2ccc(Oc3ccccc3)cc2)nn2c1NCCC2C1CCN(C2CCN(C(=O)N3CCN(C4CCN(c5ccc6c(c5)C(=O)N(C5CCC(=O)NC5=O)C6=O)CC4)CC3)CC2)CC1 (stereo not drawn) [Compound 345] < 10 nM

Try the molecule Nc1ncnc2c1c(-c1ccc(Oc3ccccc3)cc1)nn2C1CCN(C2CCN(C(=O)N3CCC(CCCN4CCC(c5ccc6c(c5)CN(C5CCC(=O)NC5=O)C6=O)CC4)CC3)CC2)CC1 (stereo not drawn) [Compound 268] 10 to 50 nM

Try the molecule NC(=O)c1c(-c2ccc(Oc3ccccc3)cc2)nn2c1NCC[C@H]2C1CCN(C2CCN(C(=O)N3CCN(Cc4ccc5c(c4)CN(C4CCC(=O)NC4=O)C5=O)CC3)CC2)CC1 (stereo partly drawn) [Compound 380] > 50 nM

Try the molecule NC(=O)c1c(-c2ccc(Oc3ccccc3)cc2)nn2c1NCC[C@H]2C1CCN(C2CCN(C(=O)N3CCN(CC4CCN(c5ccc6c(c5)CN(C5CCC(=O)NC5=O)C6=O)CC4)CC3)CC2)CC1 (stereo partly drawn) [Compound 392] 10 to 50 nM

Try the molecule NC(=O)c1c(-c2ccc(Oc3ccccc3)cc2)nn2c1NCC[C@H]2C1CCN(C2CCN(C(=O)N3CCN(C4CCN(c5ccc6c(c5)C(=O)N(C5CCC(=O)NC5=O)C6=O)CC4)CC3)CC2)CC1 (stereo partly drawn) [Compound 385] < 10 nM

Try the molecule Nc1ncnc2c1c(-c1ccc(Oc3ccccc3)cc1)nn2C1CCN(C2CCN(C(=O)N3CCN(CCC4CCN(c5ccc6c(c5)C(=O)N(C5CCC(=O)NC5=O)C6=O)CC4)CC3)CC2)CC1 (stereo not drawn) [Compound 247] 10 to 50 nM

Try the molecule NC(=O)c1c(-c2ccc(Oc3ccccc3)cc2)nn2c1NCCC2C1CCN(C2CCN(C(=O)N3CCN(CC4CCN(c5ccc6c(c5)C(=O)N(C5CCC(=O)NC5=O)C6=O)CC4)CC3)CC2)CC1 (stereo not drawn) [Compound 351] 10 to 50 nM

Try the molecule NC(=O)c1c(-c2ccc(Oc3ccccc3)cc2)nn2c1NCCC2C1CCN(C2CCN(C(=O)N3CCC(CN4CCN(c5ccc6c(c5)C(=O)N(C5CCC(=O)NC5=O)C6=O)CC4)CC3)CC2)CC1 (stereo not drawn) [Compound 349] 10 to 50 nM

Try the molecule Nc1ncnc2c1c(-c1ccc(Oc3ccccc3)cc1)nn2C1CCN(C2CCN(C(=O)N3CCN(CCCC4CCN(c5ccc6c(c5)CN(C5CCC(=O)NC5=O)C6=O)CC4)CC3)CC2)CC1 (stereo not drawn) [Compound 260] 10 to 50 nM

Try the molecule NC(=O)c1c(-c2ccc(Oc3ccccc3)cc2)nn2c1NCCC2C1CCN(C(=O)N2CCC(CN3CCN(c4ccc5c(c4)CN(C4CCC(=O)NC4=O)C5=O)CC3)CC2)CC1 (stereo not drawn) [Compound 276] < 10 nM
